Origin of the recorded values: ChEMBL document CHEMBL1201862

- Test system: RPMI-8226
- Protocol summary: NCI tumour cell line growth inhibition, 48 h
Active and inactive are the calls of the source. Cut-off read from the data, not from the text of the source: active = GI50 up to about 1.1 µM and inactive = higher.
API: response.call in active, inactive

Recorded test outcome, item O=C(/C=C/c1ccccc1)c1cc(Br)ccc1O
inactive

Subsequent entry: Cc1[nH]nc(C(=O)N/N=C/c2cccs2)c1/N=N\N(C)C
inactive

Subsequent entry: Cc1cc2c(cc1C)[n+]([O-])c(C(=O)CC(=O)C(=O)Nc1ccccc1C)c(C)[n+]2[O-]
inactive

Subsequent entry: C=C1CC2CC[C@@]34C[C@@H]5O[C@@H]6C(O[C@H]7CC[C@H](CC(=O)OC8[C@@H](C)C9OC%10C[C@]%11(C[C@@H]%12O[C@@]%13(C[C@@H](C)[C@@H]%12O%11)C[C@H](C)[C@@H]%11OC%12CC(C(O)CO)OC%12C[C@@H]%11O%13)OC%10CC9O[C@H]8C[C@H]8O[C@@H](CC[C@@H]1O2)C[C@@H](C)C8=C)O[C@@H]7[C@@H]6O3)C5O4 (some centres not stated)
active

Subsequent entry: O=NN(CCCl)C(=O)N[C@H]1CC[C@@H](CC(=O)O)CC1
inactive

Subsequent entry: O=C(O)CCC/N=C(\C(=N\CCCC(=O)O)c1ccccc1)c1ccccc1
inactive

Subsequent entry: COc1ccc(C(=O)N(C(=S)OCCOc2ccccc2)c2ccccc2)cc1
inactive

###

- Test system: M14
- Protocol summary: NCI tumour cell line growth inhibition, 48 h
Activity calls are given as the source filed them. No stated cut-off is given here; in the data, active = GI50 up to about 1.1 µM and inactive = higher.
API: response.call in Y (active), N (inactive)

Recorded test outcome, item CCCCCCCCCCCCCCCCOP(=O)(O)OCC(NC(C)=O)C(=O)O (configuration not stated)
N

Subsequent entry: O=C1/C(=C/c2ccc(Cl)cc2)N=C(c2ccccc2)N1c1nc2ccccc2s1
N

Subsequent entry: O=C1c2ccccc2C(=O)c2c(O)c(O)cc(O)c21
N

Subsequent entry: CN(CC(=O)O)Cc1c(O)c(Cl)cc(Cl)c1Cl
N

Subsequent entry: COC[C@@H]1Cc2cc(OC)c3c(c2[C@H](c2ccc(OC)c(OC)c2)[C@H]1COC)OCO3
N

Subsequent entry: COc1cc(C2C3=C(COC3=O)Oc3cc4c(cc32)OCO4)cc(OC)c1OC (configuration not stated)
Y

Subsequent entry: C=C1CC2CC[C@@]34C[C@@H]5O[C@@H]6C(O[C@H]7CC[C@H](CC(=O)OC8[C@@H](C)C9OC%10C[C@]%11(C[C@@H]%12O[C@@]%13(C[C@@H](C)[C@@H]%12O%11)C[C@H](C)[C@@H]%11OC%12CC(C(O)CO)OC%12C[C@@H]%11O%13)OC%10CC9O[C@H]8C[C@H]8O[C@@H](CC[C@@H]1O2)C[C@@H](C)C8=C)O[C@@H]7[C@@H]6O3)C5O4 (some centres not stated)
Y

###

- Test system: M14
- Protocol summary: NCI tumour cell line growth inhibition, 48 h
Calls of active or inactive are those of the source. Rule as the data show it: active = GI50 up to about 1.1 µM and inactive = higher.
Please provide measured GI50 for the entries that follow.

Suppose we examine the compound CC1OC(OCC2OC(Oc3c(-c4ccc(O)cc4)oc4cc(O)cc(O)c4c3=O)C(OC3OC(C)C(O)C(O)C3O)C(O)C2O)C(O)C(O)C1O (stereo not given) ; what GI50 value has been reported?
> 100 µM (inactive)

Subsequent entry: S=C1NNC(=S)NN1
0.533 µM (active)

Subsequent entry: S=C1SCN(Cc2ccco2)CN1c1ccc(Br)cc1
13.8 µM (inactive)

Subsequent entry: O=C1c2ccccc2C(=O)c2c(O)ccc(O)c21
> 100 µM (inactive)

Subsequent entry: Cc1cn2c(/C=N/NC(=N)N)c(-c3ccc([N+](=O)[O-])cc3)nc2s1
1.17 µM (inactive)
